- Measured On: human norepinephrine transporter (Homo sapiens)
- Construct: host or cells: HEK-293
- Test Summary: hNET receptor binding ([125I]-RTI-55 radioligand binding)
- Test Settings: membranes of HEK-293 cells transfected with human norepinephrine transporter, IC50 converted to Ki by Cheng-Prusoff, read-out: hNET (Ki)
Measured Metric: pKi
Friendly reminder that pKi comes from taking -log10 of the concentration in mol/L.

For orientation, consider the following solved cases.
Fc1ccccc1O[C@@H](c1ccccc1)[C@H]1CNCCO1 = 6.88
CCOc1ncccc1OC(C(C)C)[C@@H]1CNCCO1 (stereo partly shown) = 6.83
Clc1ccc(-c2ccccc2O[C@@H](c2ccccc2)[C@@H]2CNCCO2)cc1 = 7.00

Now let's try a different one.
Summary line: c1ccc(COc2ccccc2O[C@@H](c2ccccn2)[C@@H]2CNCCO2)cc1 , human norepinephrine transporter (Homo sapiens), reported pKi = 7.09

---

- Measured On: human norepinephrine transporter (Homo sapiens, UniProt P23975)
- Construct: host or cells: HEK-293
- Sequence (P23975 whole entry): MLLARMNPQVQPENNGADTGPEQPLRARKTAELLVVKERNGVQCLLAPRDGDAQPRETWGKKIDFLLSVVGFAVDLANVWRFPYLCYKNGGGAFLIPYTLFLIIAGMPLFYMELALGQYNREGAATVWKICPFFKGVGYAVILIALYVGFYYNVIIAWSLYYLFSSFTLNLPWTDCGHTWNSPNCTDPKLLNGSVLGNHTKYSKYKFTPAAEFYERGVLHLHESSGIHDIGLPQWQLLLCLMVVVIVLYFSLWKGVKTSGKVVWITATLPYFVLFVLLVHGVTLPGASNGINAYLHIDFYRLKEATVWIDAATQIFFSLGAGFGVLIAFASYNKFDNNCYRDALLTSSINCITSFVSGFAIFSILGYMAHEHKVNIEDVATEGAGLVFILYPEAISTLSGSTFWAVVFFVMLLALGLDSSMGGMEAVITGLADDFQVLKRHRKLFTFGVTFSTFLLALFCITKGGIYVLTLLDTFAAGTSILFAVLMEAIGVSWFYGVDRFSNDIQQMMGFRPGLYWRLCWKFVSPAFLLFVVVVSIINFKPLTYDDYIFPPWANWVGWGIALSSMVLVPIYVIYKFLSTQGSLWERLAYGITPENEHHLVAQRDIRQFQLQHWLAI
- Test Summary: hNET receptor binding ([125I]-RTI-55 radioligand binding)
- Test Settings: membranes of HEK-293 cells transfected with human norepinephrine transporter, IC50 converted to Ki by Cheng-Prusoff, read-out: hNET (Ki)
Each item that follows carries a reported pKi.
Friendly reminder that pKi comes from taking -log10 of the concentration in mol/L.

Fc1ccc(F)c(O[C@@H](c2ccccc2)[C@@H]2CNCCO2)c1 [Example 96] = 7.92

The measured pKi associated with Fc1ccc(Oc2ncccc2OC[C@@H]2CNCCO2)cc1F [Example 79] reads 8.00

The measured pKi associated with COc1cccc(F)c1OC(c1ccccc1)[C@@H]1CNCCO1 (stereo partly shown) [Example 95] reads 8.52

The measured pKi associated with N#Cc1ccccc1O[C@@H](c1ccccn1)[C@@H]1CNCCO1 [Example 22 (2S, 3S)] reads 7.92

---

Each item that follows carries a reported log10 Ki.
- Measured On: human norepinephrine transporter (Homo sapiens, UniProt P23975)
- Construct: host or cells: HEK-293
- Test Summary: hNET receptor binding ([125I]-RTI-55 radioligand binding)
- Test Settings: membranes of HEK-293 cells transfected with human norepinephrine transporter, IC50 converted to Ki by Cheng-Prusoff, read-out: hNET (Ki)
Units before log transform: nM; reported quantity: Ki; transform: log10.

For orientation, consider the following solved cases.
CCOc1ccccc1OC(CC1CCCCC1)[C@@H]1CNCCO1 (some centres unmarked) = 1.08
Brc1ncccc1O[C@@H](c1ccccc1)[C@@H]1CNCCO1 = 1.23
Cc1ccc(C(C)C)c(O[C@@H](c2ccccn2)[C@@H]2CNCCO2)c1 = 2.66
CCOc1ccccc1OC(c1cccc(F)c1)C1CNCCO1 (stereo in doubt) = 1.04
COc1cccc([C@H](Oc2ccccc2Br)[C@@H]2CNCCO2)n1 = 1.18

Summary line: Brc1ccccc1O[C@@H](c1ccccn1)[C@@H]1CNCCO1 , human norepinephrine transporter (Homo sapiens, UniProt P23975), reported log10 Ki = 0.70

Summary line: Fc1ccc(-c2cc(F)ccc2OCC2CNCCO2)cc1 (centres unmarked) , human norepinephrine transporter (Homo sapiens, UniProt P23975), reported log10 Ki = 1.81

Summary line: Cc1ncccc1O[C@@H](c1ccccc1)[C@@H]1CNCCO1 , human norepinephrine transporter (Homo sapiens, UniProt P23975), reported log10 Ki = 2.59

---

- Measured On: human seritonin transporter (Homo sapiens)
- Sequence (P31645 whole entry): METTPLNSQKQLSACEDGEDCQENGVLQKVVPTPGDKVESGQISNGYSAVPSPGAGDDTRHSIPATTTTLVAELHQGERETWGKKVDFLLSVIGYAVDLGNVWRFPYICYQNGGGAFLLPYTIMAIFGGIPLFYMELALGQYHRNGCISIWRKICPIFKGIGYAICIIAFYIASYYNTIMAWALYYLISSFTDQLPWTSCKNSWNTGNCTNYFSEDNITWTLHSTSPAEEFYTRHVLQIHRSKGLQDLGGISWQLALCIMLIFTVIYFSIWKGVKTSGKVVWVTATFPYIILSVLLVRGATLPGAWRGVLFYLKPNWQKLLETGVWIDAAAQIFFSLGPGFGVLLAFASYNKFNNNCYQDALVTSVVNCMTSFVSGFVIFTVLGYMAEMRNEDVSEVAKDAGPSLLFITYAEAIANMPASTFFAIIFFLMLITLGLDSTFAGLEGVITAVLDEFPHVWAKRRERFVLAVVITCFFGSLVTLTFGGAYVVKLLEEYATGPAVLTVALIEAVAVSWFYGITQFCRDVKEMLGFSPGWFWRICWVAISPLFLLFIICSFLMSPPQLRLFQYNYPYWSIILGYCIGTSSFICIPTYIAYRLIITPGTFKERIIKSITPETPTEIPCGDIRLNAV
Measured Metric: Ki

For orientation, consider the following solved cases.
[O-][n+]1ccccc1O[C@@H](c1ccccc1)[C@@H]1CNCCO1 = ≥ 10 µM
Fc1ccc(Oc2nccnc2OCC2CNCCO2)cc1 (stereo in doubt) = ≥ 10 µM

The measured Ki associated with CCOc1ccccc1O[C@@H](C1CCCCC1)[C@@H]1CNCCO1 reads ≥ 10 µM
